Molecular target: ABCG2 (breast cancer resistance protein, BCRP) (Homo sapiens)
Sequence (Q9UNQ0 1-655): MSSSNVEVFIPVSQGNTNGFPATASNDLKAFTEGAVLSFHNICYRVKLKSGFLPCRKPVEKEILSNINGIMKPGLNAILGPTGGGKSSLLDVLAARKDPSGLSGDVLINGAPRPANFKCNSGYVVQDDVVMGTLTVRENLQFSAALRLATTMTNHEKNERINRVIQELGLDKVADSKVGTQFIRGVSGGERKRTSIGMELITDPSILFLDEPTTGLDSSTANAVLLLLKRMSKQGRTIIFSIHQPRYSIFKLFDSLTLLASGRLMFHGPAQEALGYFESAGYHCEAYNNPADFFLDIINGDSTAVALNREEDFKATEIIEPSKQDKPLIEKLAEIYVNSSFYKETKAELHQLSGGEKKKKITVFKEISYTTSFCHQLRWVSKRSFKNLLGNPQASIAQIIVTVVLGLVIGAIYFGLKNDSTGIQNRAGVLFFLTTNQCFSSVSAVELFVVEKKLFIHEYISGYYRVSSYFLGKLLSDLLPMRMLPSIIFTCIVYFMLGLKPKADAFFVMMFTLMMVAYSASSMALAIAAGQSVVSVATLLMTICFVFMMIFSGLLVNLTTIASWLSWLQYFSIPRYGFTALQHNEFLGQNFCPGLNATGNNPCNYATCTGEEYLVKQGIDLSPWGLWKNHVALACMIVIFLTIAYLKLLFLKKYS
Assay: Hoechst […] efflux inhibition by flow cytometry in HEK293-ABCG2 cells; 5D3 conformational antibody shift; kinetics with mitoxantrone
Type: cell-based

{"columns": ["Compound", "Display unit", "IC50"],
 "data": [
  ["Cc1cccc(C)c1OCC(=O)N[C@@H](Cc1ccccc1)[C@@H](O)C[C@H](Cc1ccccc1)NC(=O)[C@H](C(C)C)N1CCCNC1=O [LPV, lopinavir]", "µM", 23.4]
]}

Sourced from paper PMC10776880
